# targetOfAssay: EML4-ALK-BaF3 (Homo sapiens, UniProt Q9UM73)
# Construct: expressed in transfected cells; host or cells: Ba/F3 cells; the other entry of the earlier key: EML4 (Q9HC35, Echinoderm microtubule-associated protein-like 4)
# Sequence (Q9UM73 1058-1620 limits assumed): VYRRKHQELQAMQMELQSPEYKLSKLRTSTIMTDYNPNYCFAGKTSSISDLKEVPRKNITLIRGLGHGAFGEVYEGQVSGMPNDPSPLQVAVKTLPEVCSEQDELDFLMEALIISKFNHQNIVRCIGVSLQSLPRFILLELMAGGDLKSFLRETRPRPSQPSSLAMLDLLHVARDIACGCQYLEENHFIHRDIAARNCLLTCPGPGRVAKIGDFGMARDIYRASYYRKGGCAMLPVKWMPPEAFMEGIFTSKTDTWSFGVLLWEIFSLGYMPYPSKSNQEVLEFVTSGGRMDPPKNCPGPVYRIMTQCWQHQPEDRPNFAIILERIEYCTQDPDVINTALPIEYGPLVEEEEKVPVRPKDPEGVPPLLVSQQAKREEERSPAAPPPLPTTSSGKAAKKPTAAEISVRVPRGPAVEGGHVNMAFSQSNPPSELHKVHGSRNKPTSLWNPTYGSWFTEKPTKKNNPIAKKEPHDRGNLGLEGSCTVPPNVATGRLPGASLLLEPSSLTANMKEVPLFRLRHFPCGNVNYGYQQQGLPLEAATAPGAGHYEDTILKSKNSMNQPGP
# assayMethodText: Growth inhibition of EML4-ALK transformed BaF3 cells (MTS)
# Type: cell-based
# conditionParameters: EML4-ALK-BaF3 cells, 48 hours, MTS; Table 11
outcomeMeasure: IC50 (nM)

[1] CC(C)S(=O)(=O)c1ccccc1CNc1nc(Nc2ccc(N3CCN(C)CC3)cc2)nc2cc[nH]c12
[2] CSc1ccccc1Nc1nc(Nc2ccc(S(N)(=O)=O)cc2)nc2cc[nH]c12
[3] COC(=O)c1ccccc1Nc1nc(Nc2ccc(N3CCC(N4CCN(C)CC4)CC3)cc2OC)nc2cc[nH]c12
List from greatest to least IC50. Please, when replying, give the labels in the order that was requested.
1, 2, 3
